Target: human GLP-1R (Homo sapiens)
Sequence (P43220 24-463): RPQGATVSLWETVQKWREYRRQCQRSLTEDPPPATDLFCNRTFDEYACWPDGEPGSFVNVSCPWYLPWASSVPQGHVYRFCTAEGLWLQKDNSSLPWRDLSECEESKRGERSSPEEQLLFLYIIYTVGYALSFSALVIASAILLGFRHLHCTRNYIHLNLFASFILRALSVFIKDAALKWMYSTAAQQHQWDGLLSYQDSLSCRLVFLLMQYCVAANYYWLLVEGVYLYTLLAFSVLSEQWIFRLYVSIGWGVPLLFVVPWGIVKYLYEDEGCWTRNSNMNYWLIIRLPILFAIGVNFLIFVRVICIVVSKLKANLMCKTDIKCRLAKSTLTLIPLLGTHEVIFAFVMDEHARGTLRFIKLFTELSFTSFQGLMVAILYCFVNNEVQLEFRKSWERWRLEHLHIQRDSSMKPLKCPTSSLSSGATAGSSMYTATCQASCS
Assay: GLP-1 receptor in vitro calcium assay (intracellular free calcium concentration change induced via GLP-1 receptor)
Details: PRG48 cells transfected with human GLP-1R; compound added with 250 pM GLP-1; Ca2+ response ΔF/F; read-out: Ca EC50 value
Category | rule: reported EC50 within range, see bin 1 (below 0.2 µM), bin 2 (0.2 µM to below 1 µM), bin 3 (1 µM or more)

| molecule | label.class |
| --- | --- |
| CCCOc1ccc(-c2noc([C@H](Cc3ccccc3)NC(=O)Nc3ccc(NS(=O)(=O)c4ccc(C)cc4)cc3)n2)cc1 [Compound 69] | bin 1 |
| CCCCCCCCNC(=O)[C@H](Cc1ccc(Cl)cc1)NC(=O)Nc1ccc(NS(=O)(=O)c2ccc(C(C)(C)C)cc2)cc1 [Compound 59] | bin 1 |
| Cc1ccc(S(=O)(=O)Nc2ccc(NC(=O)N[C@H](Cc3ccccc3)C(=O)NCCc3ccccc3)cc2)cc1 [Compound 13] | bin 3 |
| CC(C)c1ccc(S(=O)(=O)Nc2ccc(NC(=O)N[C@@H](Cc3ccccc3)C(=O)OC(C)(C)C)cc2)cc1 [Compound 72] | bin 2 |
| Cc1ccc(S(=O)(=O)Nc2ccc(NC(=O)N[C@H](CC(=O)OC(C)(C)C)Cc3ccccc3)cc2)cc1 [Compound 76] | bin 3 |
| CSCCCNC(=O)[C@@H](CC1CCCCC1)NC(=O)Nc1ccc(NS(=O)(=O)c2ccc(C(C)(C)C)cc2)cc1 [Compound 91] | bin 1 |
| Cc1ccc(S(=O)(=O)Nc2ccc(NC(=O)N[C@H](Cc3ccccc3)c3nnc(S)n3-c3ccccc3)cc2)cc1 [Compound 90] | bin 3 |
| Cc1ccc(S(=O)(=O)Nc2ccc(NC(=O)N[C@H](CC(C)C)C(=O)OC(C)(C)C)cc2)cc1 [Compound 64] | bin 3 |
| Cc1ccc(S(=O)(=O)Nc2ccc(NC(=O)N[C@H](Cc3ccccc3)C(=O)NCC3CCCCC3)cc2)cc1 [Compound 8] | bin 2 |
| Cc1ccc(S(=O)(=O)Nc2ccc(NC(=O)N[C@H](Cc3ccccc3)C(=O)NCC(F)(F)F)cc2)cc1 [Compound 15] | bin 1 |
| Cc1ccc(S(=O)(=O)Nc2ccc(NC(=O)N[C@@H](Cc3ccccc3)C(=O)OC(C)(C)C)cc2)cc1 [Compound 63] | bin 3 |
| Cc1ccc(S(=O)(=O)Nc2ccc(NC(=O)N[C@H](Cc3ccccc3)C(=O)NCc3cccs3)cc2)cc1 [Compound 12] | bin 2 |
| Cc1ccc(S(=O)(=O)Nc2ccc(NC(=O)N[C@H](Cc3ccccc3)C(=O)OC(C)(C)C)cc2F)cc1 [Compound 87] | bin 3 |
| Cc1ccc(S(=O)(=O)Nc2ccc(NC(=O)N[C@H](Cc3ccccc3)C(=O)NCCC3CCCCC3)cc2)cc1 [Compound 22] | bin 2 |
| Cc1ccc(S(=O)(=O)Nc2ccc(NC(=O)N[C@@H](CC(C)C)C(=O)OC(C)(C)C)cc2)cc1 [Compound 65] | bin 3 |
| CC(C)CCCC(C)NC(=O)[C@@H](CC1CCCCC1)NC(=O)N(CC(=O)O)c1ccc(NS(=O)(=O)c2ccc(C(C)(C)C)cc2)cc1 (stereo partly shown) [Compound 108] | bin 1 |
| Cc1ccccc1S(=O)(=O)Nc1ccc(NC(=O)N[C@@H](Cc2ccccc2)C(=O)OC(C)(C)C)cc1 [Compound 78] | bin 3 |
| CCCCCCNC(=O)[C@@H](Cc1c[nH]c2ccccc12)NC(=O)Nc1ccc(NS(=O)(=O)c2ccc(C)cc2)cc1 [Compound 21] | bin 2 |
| CC(C)(C)SCCCCCNC(=O)[C@@H](CC1CCCCC1)NC(=O)Nc1ccc(NS(=O)(=O)c2ccc(C(C)(C)C)cc2)cc1 [Compound 99] | bin 1 |
| CC(C)(C)OC(=O)[C@H](Cc1ccccc1)NC(=O)Nc1ccc(NS(=O)(=O)c2ccc(C(C)(C)C)cc2)cc1 [Compound 73] | bin 2 |
| COC(C)(C)CNC(=O)[C@@H](Cc1ccccc1)NC(=O)Nc1ccc(NS(=O)(=O)c2ccc(C)cc2)cc1 [Compound 9] | bin 2 |
| Cc1ccc(S(=O)(=O)Nc2ccc(NC(=O)N[C@H](Cc3ccccc3)C(=O)NC3CCCCC3)cc2)cc1 [Compound 3] | bin 3 |
| CCCCC(CC)CNC(=O)[C@@H](Cc1c[nH]c2ccccc12)NC(=O)Nc1ccc(NS(=O)(=O)c2ccc(C)cc2)cc1 (stereo partly shown) [Compound 40] | bin 1 |
| CCCCCCN(C)C(=O)[C@@H](Cc1ccccc1)NC(=O)Nc1ccc(NS(=O)(=O)c2ccc(C)cc2)cc1 [Compound 53] | bin 2 |
| Cc1ccc(S(=O)(=O)Nc2ccc(NC(=O)N[C@H](Cc3ccccc3)C(=O)NC3CCCCCCC3)cc2)cc1 [Compound 52] | bin 1 |
| Cc1ccc(S(=O)(=O)Nc2ccc(NC(=O)N[C@H](Cc3c[nH]c4ccccc34)C(=O)NCCC3CCCCC3)cc2)cc1 [Compound 47] | bin 1 |
| CCCCCCNC(=O)[C@@H](CCSC)NC(=O)Nc1ccc(NS(=O)(=O)c2ccc(C)cc2)cc1 [Compound 20] | bin 3 |
| Cc1ccc(S(=O)(=O)Nc2ccc(NC(=O)N[C@H](CC3CCCCC3)C(=O)NC3CCCCCC3)cc2)cc1 [Compound 41] | bin 1 |
